Listed molecules paired with reported residual activity
- TARGET_ENTITY: AKT3 (human)
- EXPERIMENT_NOTES: radiometric filter-binding kinase assay, Kinase HotSpot
- EXPERIMENTAL_SETUP: compound 0.5 µM; ATP 10 µM

MOLECULE | residual activity (%)
CCN(CC)C(=O)c1ccc(Nc2nc(OCC3CCCCC3)c3nc[nH]c3n2)cc1 | 101
CNC(=O)c1cc(Oc2ccc(NC(=O)Nc3ccc(Cl)c(C(F)(F)F)c3)cc2)ccn1 | 94.2
Cc1ccc(S(=O)(=O)/C=C/C#N)cc1 | 93.7
N#CC(C#N)=C(N)/C(C#N)=C/c1ccc(O)cc1 | 95.8
O=C1NC(=O)/C(=C/c2ccc3c(c2)OC(F)(F)O3)S1 | 103
Oc1cccc(-c2nc(N3CCOCC3)c3oc4ncccc4c3n2)c1 | 99
Cc1ccc(NC2=CC(=O)c3sc(C)nc3C2=O)cc1 | 92.8
Nc1cccc(-c2cc3c(Oc4cccc(O)c4)ncnc3[nH]2)c1 | 96.2
N#C/C(=C(/N)Sc1ccc(N)cc1)c1ccccc1C(F)(F)F | 96.2
CC#CC(=O)Nc1cc2c(Nc3ccc(F)c(Cl)c3)ncnc2cn1 | 97.8
CCN(CC)CCNC(=O)c1c(C)[nH]c(/C=C2\C(=O)Nc3ccc(Cl)cc32)c1C | 84.2
Nc1ncnc2c1c(-c1ccc(Oc3ccccc3)cc1)cn2C1CCCC1 | 98.2
CC(=O)c1ccc(N2CCOCC2)cc1O | 107
O=S(=O)(c1cccc2cnccc12)N1CCCNCC1 | 94.1
Cc1[nH]c(/C=C2\C(=O)Nc3ccc(S(=O)(=O)N(C)c4cccc(Cl)c4)cc32)c(C)c1C(=O)N1CCN(C)CC1 | 107
COc1ccc(COc2ccc(Cc3cnc(N)nc3N)cc2OC)cc1 | 96.5
COc1cc2ncnc(Nc3cccc(Cl)c3)c2cc1OC | 98.3
CCOC(=O)c1c(C)[nH]c(/C=C2\C(=O)Nc3ccccc32)c1C | 103
COc1ccc2c(c[n+](C)c3c4cc5c(cc4ccc23)OCO5)c1OC | 103
O=C(Nc1cccc(Nc2nccc(Nc3cccc(C(F)(F)F)c3)n2)c1)C1CC1 | 108
O=C1NC(=O)c2c1c1c3ccccc3n3c1c1c2c2ccccc2n1C1CCC3O1 | 27.1
CO[C@H]1CC2CC[C@@H](C)[C@@](O)(O2)C(=O)C(=O)N2CCCC[C@H]2C(=O)OC([C@H](C)C[C@@H]2CC[C@@H](O)[C@H](OC)C2)CC(=O)[C@H](C)/C=C(\C)[C@@H](O)[C@@H](OC)C(=O)[C@H](C)C[C@H](C)/C=C/C=C/C=C/1C (stereo not given in full) | 97.8
Nc1ccc2ncnc(NCCc3ccc(Oc4ccccc4)cc3)c2c1 | 104
CNc1cc2c(Nc3cccc(Br)c3)ncnc2cn1 | 103
CC[n+]1c(/C=C/N(C)c2ccccc2)n(-c2ccccc2)c2ccc(-c3nc4ccccc4s3)cc21 | 109

----------
- TARGET_ENTITY: FLT1 (human)
- EXPERIMENT_NOTES: radiometric filter-binding kinase assay, Kinase HotSpot
- EXPERIMENTAL_SETUP: compound 0.5 µM; ATP 10 µM
Recorded residual activity, one value per entry.
MEASURE_NAME: residual activity (%)

LINE_NOTATION | MEASURE_NAME | UNIT_INFO | NUMBER
Oc1cccc(-c2nc(N3CCOCC3)c3oc4ncccc4c3n2)c1 | residual activity | % | 83.6
Nc1ncnc2c1c(-c1ccc(Oc3ccccc3)cc1)cn2C1CCCC1 | residual activity | % | 76.9
O=C1Nc2ccc(Cl)cc2/C1=C/c1cc(Cl)c(O)c(Cl)c1 | residual activity | % | 85
Cc1[nH]c(/C=C2\C(=O)Nc3ccc(S(=O)(=O)N(C)c4cccc(Cl)c4)cc32)c(C)c1C(=O)N1CCN(C)CC1 | residual activity | % | 74.7
O=c1cc(N2CCOCC2)oc2c1ccc1ccccc12 | residual activity | % | 95.5
N#CC(C#N)=C(N)/C(C#N)=C/c1ccc(O)cc1 | residual activity | % | 90.7
CCN(CC)CCNC(=O)c1c(C)[nH]c(/C=C2\C(=O)Nc3ccc(F)cc32)c1C | residual activity | % | 58.7
Nc1ccc2ncnc(NCCc3ccc(Oc4ccccc4)cc3)c2c1 | residual activity | % | 96
Cc1ccc(S(=O)(=O)/C=C/C#N)cc1 | residual activity | % | 92.8
CNc1cc2c(Nc3cccc(Br)c3)ncnc2cn1 | residual activity | % | 83.5
N#C/C(=C(/N)Sc1ccc(N)cc1)c1ccccc1C(F)(F)F | residual activity | % | 85.4
c1ccc(-c2n[nH]cc2-c2ccnc3ccccc23)nc1 | residual activity | % | 81.4
